Form field: apparent Kd (one value per entry).
system: MS2 coat protein; assay: apparent Kd, MS2 coat protein; higher = weaker binding; RNA-MaP array; FMN 200 µM where present; details: designed as: ON switch for flavin mononucleotide; no ligand
Please reply with the bare figure in nM and do not write the unit itself.

chain_sequence=CGUAGGAUCCAGAAGGCAUGAACAUGAGGAUCACCCAUGUCAAUAGACAUGAGGAUAUGGAUCCUACGAAAAGUGCGAAAGCAC target_under_test="MS2 coat protein" quantitative_readout=31.8
chain_sequence=CCUAAGGACACAGGAUAUAGCGUGGUGGGUGGGCUCCAACGACGAGCGGCGCUAGAAGGGUGACCACAUGAGGAUCACCCAUGU target_under_test="MS2 coat protein" quantitative_readout=668
chain_sequence=GUAGCAUACCGAGGAUAUUCAGGGCUUAAAUAAACAUGAGGAUCACCCAUGUGGCGAAAGCCUAGGGAGAAGGCGGAAUGCUAC target_under_test="MS2 coat protein" quantitative_readout=14.6
chain_sequence=CAGCGAUAGCUGAACAAUCUAUCUGAGGAUAUCAUGAAUAAACAUGAGGAUCACCCAUGUAAAUAUGAGAAGGCAGAUAGAUUG target_under_test="MS2 coat protein" quantitative_readout=4.82
chain_sequence=AAAACAUGAGGAUCACCCAUGUAAAGAUCGGUUAAUAAAAGUGAGGAUAUACUAAAUUUUAUAUAGUAGAAGGCACUGGGUACA target_under_test="MS2 coat protein" quantitative_readout=22.9
chain_sequence=UGUGUUAUUGGAGGAUAUCGAUAUCAAACAUGAGGAUCACCCAUGUUGAGGAUCACACAUGUAAAUGAGAAGGCCGACGUAGUG target_under_test="MS2 coat protein" quantitative_readout=12.5

Ask | # input sequence: ACUUUACAUGAGGAUCACCCAUGUUUUGGUGGAUCAGGAUAUAAAUUGAAUGAGUUUUAGUUAGAAGGGAUAUUUA ; wanted: its apparent Kd
Reply | 89.8

###

Reported apparent Kd values for the following sequences.
test system: MS2 coat protein; experiment: apparent Kd, MS2 coat protein; higher = weaker binding; RNA-MaP array; FMN 200 µM where present; details: ligand present: flavin mononucleotide; designed as: OFF switch for flavin mononucleotide
Numbers only here, please. The scale is nM.

Ask | Requested field: apparent Kd. Item: CGCUAGUCAGGAUAUACGAACAUGUCACAAGACGUGAAGGGACAUGAGGAUCACCCAUGUAGAAGGGACUAGCA
Reply | 171

Ask | Given the entry CACCGGCCCUAUGUGUUCUAGACAUGAGGAUCACCCAUGUAUAGAAGGGUCUUCGCGAAACGCAGACAGGAUAUGUACAGGAGU , report its measured apparent Kd.
Reply | 9.26

Ask | For the sequence AUUAUGACCGAGUUAUAGUUCCUAACAUGAGGAUCACCCAUGUAGGAUAUCAGCACGAUAAGUGCUGAGAAGGACAUCUCGGUC , what apparent Kd is on record?
Reply | 13.9

###

tested on: MS2 coat protein; experiment: apparent Kd, MS2 coat protein; higher = weaker binding; RNA-MaP array; conditions: designed as: OFF switch for flavin mononucleotide; no ligand
property.label: apparent Kd (nM)
Number in nM, nothing else.

Reference set (3 entries):
chain_sequence=GUACCUCCCAAAGGAUAUGGACCGCAGACAUGAGGAUCACCCAUGUAGGACGCACUGUUUGCGCGCCAGAAGGUUGUUAAUCGC target_under_test="MS2 coat protein" property_label="apparent Kd" quantitative_readout=98.5
chain_sequence=CCAUGCGUUGAGAAGGUGCUCGGGAAUCCACAUGAGGAUCACCCAUGUUGACUAGUAAGGCAUCGCAAGGAUAUCAGCUAUCUC target_under_test="MS2 coat protein" property_label="apparent Kd" quantitative_readout=28.8
chain_sequence=GAACCUAUAGGAUAUACAUGAGGAUCACCCAUGUAGCCAUCUAUUCGUGGGACUAGGUGUAGAAGGAUAGCAAA target_under_test="MS2 coat protein" property_label="apparent Kd" quantitative_readout=12.7

Turning now to a further sequence:
Ask | Consider the sequence shown here: GGUCCCGUAGGAUAUUGCUCAUUGUACAUGAGGAUCACCCAUGUGACUACACUGCACUGGCAAGAAGGACGUUGAU What is its recorded apparent Kd?
Reply | 83.2

###

test system: MS2 coat protein; assay: apparent Kd, MS2 coat protein; higher = weaker binding; RNA-MaP array; settings: designed as: OFF switch for tryptophan; no ligand
Please note: condition met applies when apparent Kd is 0.03 µM or greater, and condition not met applies otherwise.

Consider the worked cases shown below.
chain_sequence=UUUAGUCAAUCGGCCGCCACUGACAUGAGGAUCACCCAUGUAGGUAAGGAUCAACCUCGAAAGUACAGGACCGGGAUUCGCCUCU category="condition met"
chain_sequence=GCUACACAGGACCGUACUAAGGAUUCGCCUCGAGGACCGGUACGGCCGCCACUCGUUGCGCGACAUGAGGAUCACCCAUGUGUUC category="condition met"
chain_sequence=UGCCUAAAGUCGGCCGCCACUGAUGGUAUCCUCUCCUCGAGGUCACACAUGAGGAUCACCCAUGUCAGGACCGGGACUAGUGAGA category="condition not met"

Consider the record given below.
Ask | Can AAUGGGCGAGUAGAGCAUAAUUUCCACUCCCGAGGACCGGUACGGCCGCCACUCGUUCGCUCACAUGAGGAUCACCCAUGUGGUC be said to have apparent Kd at or above 0.03 µM?
Reply | condition met

###

tested on: MS2 coat protein; experiment: apparent Kd, MS2 coat protein; higher = weaker binding; RNA-MaP array; FMN 200 µM where present; settings: ligand present: flavin mononucleotide; designed as: OFF switch for flavin mononucleotide
Quick reference: apparent Kd of the listed items.
Write the numeric value and append its unit.

Worked cases, apparent Kd given:
chain_sequence=GUGUACGGAGGAUAUAUGUGGGCAGGCUGACCUGCAGCUUCACAUGAGGAUCACCCAUGUAGAAGGCUGUGCAC property_label="apparent Kd" result="92.9 nM"
chain_sequence=UAUGAGCGAGGAUAUGCUUGGGACGUCGUUCUUGCGGCGAGACAUGAGGAUCACCCAUGUAGAAGGCGCGAGCG property_label="apparent Kd" result="18.5 nM"
chain_sequence=GCUGCAAAGUAAGGAUAUGCCUAGGAAACCUAGGCAGAAGGUACAUGAGGAUCACCCAUGUUAACGCAAAGCGAAUAAAGCAGC property_label="apparent Kd" result="24.1 nM"
chain_sequence=UUUAUUUCGGCAGGAUAUACAUGUAUAUAUAUUCCUUCAUAUCUUAUUACAUGAGGAUCACCCAUGUAGAAGGGCCUUCUUCUC property_label="apparent Kd" result="42.1 nM"
chain_sequence=UCGAGGUCAGGAUAUACAUGAGGAUCACCCAUGUGGAAGUAAGGUAGGAGAAGAGUAGGUAGAAGGGACGAGAG property_label="apparent Kd" result="35.7 nM"
chain_sequence=GCGGGAGGAGGAUAUACAAUCGUGUGACCCGGACCCUAUGGACAUGAGGAUCACCCAUGUAGAAGGUUUCCCUU property_label="apparent Kd" result="568 nM"
chain_sequence=GUCAGGUGAGGAUAUACGCGGCUGACGAAACGUUAUACCGAGUAGAAGGCACAUGAGGAUCACCCAUGUUCGGG property_label="apparent Kd" result="59.6 nM"
chain_sequence=GUCGAAGCUGUACCAGUCGACGGUCAGGAUAUACAUGAGGAUCACCCAUGUGCUAUUGAUACUAUGUAGAAGGGACCCACCGCA property_label="apparent Kd" result="11.2 nM"
chain_sequence=CGAUAUAUGAAGGACGGAAACGUACAUGAGGAUCACCCAUGUAGAAGGCGAUCCGCAACGCGGAUCGAGGAUAUAUAGUAUACA property_label="apparent Kd" result="17.6 nM"
chain_sequence=ACUAAUUAGUGAGGAUAUACAUAAUUUAUAACUGUAGAAGGCACAAACCUCAAUACAUGAGGAUCACCCAUGUGGUAUAUAAAU property_label="apparent Kd" result="434 nM"

Ask | # query: apparent Kd of entry CAAUUUAUGUCAGGAUAUACAAUACAAUGAUUAGUAGAAGGGAUUAAUACAUGAGGAUCACCCAUGUCAUGUGUCAUCGUACCC
Reply | 23.3 nM

Ask | Which apparent Kd is listed for GUGUCGUCAGGAUAUCCUACAUAACUAUCGUUGUUACCAUUGGAGAAGGGACAUGAGGAUCACCCAUGUUUUCC ?
Reply | 19.7 nM

Ask | Which measured apparent Kd value corresponds to GGAGAGCAAGGAUAUACAUGAGGAUCACCCAUGUACGGUCAUUUGGGCAUGUCUGUAAGUAGAAGGUGUUUUGG ?
Reply | 58.5 nM

Ask | Fill blank: measured apparent Kd of the sequence CAGCGAAAGCUGAAUCUGUAGAGAGAGGAUAUACAAGAUAUCAUCCAUACAUGAGGAUCACCCAUGUAGAAGGCUCUCUACAGU is ____.
Reply | 7.23 nM

Ask | Need apparent Kd, item UGCUGUGGCAGAGGAUAUACUCUAAUAAUCCAUUGCAAAUAGCGAUGGACAUGAGGAUCACCCAUGUAGAAGGCUGUCACAGCA
Reply | 137 nM
